Entry source: ChEMBL document CHEMBL1158158

experiment: Half life in Sprague-Dawley rat at 2 mg/kg, iv
Format: ADME, organism-based
Design: dose 2 mg/kg, route intravenous
test parameters: in vivo
observation type: half-life (h)

Example results:
Cc1ccc(C(=O)Nc2cccc(C(F)(F)F)c2)cc1C(=O)Nc1cncnc1
1.1
CC(=O)Nc1ccc(NC(=O)c2cc(C(=O)Nc3cccc(C(F)(F)F)c3)ccc2C)cn1
3.3
Cc1ccc(C(=O)NCCC2CCCC2)cc1C(=O)Nc1ccc(N)nc1
4.4

I. Cc1ccc(C(=O)Nc2cccc(C(F)(F)F)c2)cc1C(=O)Nc1ccc(N)nc1
II. Cc1ccc(NC(=O)c2cccc(C(F)(F)F)c2)cc1C(=O)Nc1cncnc1
Query :: In terms of reported half-life, does I or II have the smaller number? Respond with the label that goes with your answer.
Result :: II
